conditions: in ethanol, 323.15 K
Readout name: solubility (mole fraction)

[
  {
    "Smiles string": "O=C(O)c1ccc(C(=O)O)o1",
    "Observed": 0.00526
  }
]

----------
conditions: in ethanol, 334.75 K

[
  {
    "Smiles string": "O=C(O)c1ccc(C(=O)O)o1",
    "solubility (mole fraction)": 0.0072
  }
]

----------
conditions: in water, 332.75 K
Readout name: solubility (mole fraction)

[
  {
    "Smiles string": "O=C(O)c1ccc(C(=O)O)o1",
    "Observed": 0.00047
  }
]

----------
conditions: in ethanol, 305.35 K
Readout name: solubility (mole fraction)

[
  {
    "Smiles string": "O=C(O)c1ccc(C(=O)O)o1",
    "Observed": 0.00337
  }
]
